# measurement.protocol: Cell viability assay for measurement of the protective activity of small molecules against cell death caused by Zika virus infection in human astrocytoma cells
# conditions.used: SNB-19 Zika virus cytoprotection, ATP luminescence, 72 h; series mostly up to 46.1 µM
Results filed as inconclusive are left out. The source made the active and inactive calls. The call rests on the fitted dose curve; in most records, active means well fitted activation curve with a large enough effect; inconclusive means small, poorly fitted or top-dose-only effect; inactive means flat fitted curve, though single readings scatter.
Give one outcome, nothing more. List: active, inactive

Please review the entries below; each comes with its answer.
compound | classification
O=S(=O)(CC1CS1)c1ccc(Oc2ccccc2)cc1 (configuration not stated) | inactive
CN1CC(=O)N2C(Cc3c([nH]c4ccccc34)[C@H]2c2ccc3c(c2)OCO3)C1=O (some centres not stated) | inactive
Cc1ccc([N+](=O)[O-])[c]2c1[O][Hg]2 | inactive
CC(=C(CCOC(=O)C(C)C)SSC(CCOC(=O)C(C)C)=C(C)N(C=O)Cc1cnc(C)nc1N)N(C=O)Cc1cnc(C)nc1N | inactive
CC(C)[C@H]1C(=O)N[C@H](CO)Cc2c[nH]c3cccc(c23)N1C | active

Input line: Record request — test call for O=c1c2ccccc2[se]n1-c1ccccc1
Output line: inactive

Input line: Record request — test call for O=C(Nc1ccc(Br)cc1)c1cc(Br)cc(Br)c1O
Output line: inactive
